# Test protocol: Positive allosteric modulation of GABA-B receptor in rat brain cortex membranes assessed as increase in GABA-induced [35S]GTPgammaS binding after 60 mins by liquid scintillation counting method
# Type: cell membranes
Observation type: pEC50
Note on units: pEC50 is unitless, being -log10 of a concentration expressed in mol/L.

**Query** Which measured pEC50 value corresponds to Cc1noc2c(-c3cncc(F)c3)nn(C(C)c3ccc(Cl)cc3)c(=O)c12 (stereo unspecified) ?
**Result** 5.57

**Query** Entry CNC(=O)c1ccc(OC)c(-c2nn([C@@H](C)c3ccc(Cl)cc3)c(=O)c3c(C)noc23)c1 : reported pEC50 = ?
**Result** 7.64

**Query** Return reported pEC50; argument: COc1ccc(C(N)=O)cc1-c1nn(C(C)c2ccc(Cl)cc2)c(=O)c2c(C)noc12 (stereo unspecified)
**Result** 7.77

**Query** Which pEC50 is listed for CC(=O)Nc1cccc(-c2nn(Cc3ccc(Cl)cc3)c(=O)c3c(C(C)C)noc23)c1 ?
**Result** 5.59

**Query** Could you share which pEC50 value was measured for COc1ccc(NC(C)=O)cc1-c1nn([C@@H](C)c2ccc(Cl)cc2)c(=O)c2c(C3CC3)noc12 ?
**Result** 7.29

**Query** Return reported pEC50; argument: COc1ccc(NC(C)=O)cc1-c1nn([C@@H](C)c2ccc(Cl)cc2)c(=O)c2c(C)noc12
**Result** 7.37
